Measured Dmax accompanies every entry in the list below.
- target-desc: HiBiT tagged Wee1 (Homo sapiens)
- Sequence (P30291 whole entry): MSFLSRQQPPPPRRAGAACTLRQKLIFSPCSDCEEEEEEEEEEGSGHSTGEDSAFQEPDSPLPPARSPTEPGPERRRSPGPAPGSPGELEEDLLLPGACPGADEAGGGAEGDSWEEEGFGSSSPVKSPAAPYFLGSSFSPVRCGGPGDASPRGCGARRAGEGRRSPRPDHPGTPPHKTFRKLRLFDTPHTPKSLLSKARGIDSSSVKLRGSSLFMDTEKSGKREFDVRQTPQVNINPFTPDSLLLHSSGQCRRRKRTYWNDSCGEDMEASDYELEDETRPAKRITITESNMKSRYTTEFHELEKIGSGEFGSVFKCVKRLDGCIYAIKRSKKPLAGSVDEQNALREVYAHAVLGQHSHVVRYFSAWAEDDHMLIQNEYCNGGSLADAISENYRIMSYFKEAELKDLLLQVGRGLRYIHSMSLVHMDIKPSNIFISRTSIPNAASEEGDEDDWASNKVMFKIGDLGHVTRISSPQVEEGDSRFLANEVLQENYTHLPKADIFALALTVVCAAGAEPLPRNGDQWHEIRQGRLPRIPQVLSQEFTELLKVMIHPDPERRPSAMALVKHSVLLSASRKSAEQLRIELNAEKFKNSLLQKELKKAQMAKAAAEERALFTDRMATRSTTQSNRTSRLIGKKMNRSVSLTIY
- experiment: Wee1 protein degradation assay (HiBiT assay)
- Type: cell-based
- measurement-setup: engineered HT-1080 cells, 20 hours; maximum percentage of Wee1 degradation; read-out: HiBiT Wee1: Dmax

Some compounds with known Dmax results, for comparison:
compound | target-desc | Dmax
C=CCn1c(=O)c2cnc(Nc3ccc(N4CCC(CN5CCN(c6ccc7c(N8CCC(=O)NC8=O)nn(C)c7c6)CC5)CC4)cc3)nc2n1-c1ccc2c(n1)[C@@](C)(O)CC2 | HiBiT tagged Wee1 (Homo sapiens) | 50 to 75%
C=CCn1c(=O)c2cnc(Nc3ccc(N4CCC(CC(=O)Nc5cccc6c(N7CCC(=O)NC7=O)nn(C)c56)CC4)cc3)nc2n1-c1ccc2c(n1)[C@@](O)(CC)CC2 | HiBiT tagged Wee1 (Homo sapiens) | < 50%
C=CCn1c(=O)c2cnc(Nc3ccc(N4CCN(CC5CCN(c6ncc(NC7CCC(=O)NC7=O)cc6F)CC5)[C@H](C)C4)cc3)nc2n1-c1ccc2c(n1)[C@@](O)(CC)CC2 (some centres unmarked) | HiBiT tagged Wee1 (Homo sapiens) | > 75%

So what does the record say about Dmax for O=C1CCC(Nc2ccc(N3CCN(CC4CCN(c5ccc(Nc6ncc7c(=O)n(-c8c(Cl)cccc8Cl)c8nccn8c7n6)cc5)CC4)CC3)c(F)c2)C(=O)N1 (centres unmarked) ?
> 75%

Given C=CCn1c(=O)c2cnc(Nc3ccc(N4CCN(CC5CCN(c6cccc7c(C8CCC(=O)NC8=O)nn(C)c67)CC5)CC4)cc3)nc2n1-c1cccc(C(C)(C)O)n1 (centres unmarked) , state its recorded Dmax.
> 75%

Fill in the blank: the reported Dmax of Cc1cc(Nc2ncc3c(n2)N(C)CN(c2c(Cl)cccc2Cl)C3=O)ccc1N1CCC(CN2CC3(C2)CN(c2ccc4c(c2)C(=O)N(C2CCC(=O)NC2=O)C4=O)C3)CC1 (centres unmarked) is ____.
50 to 75%

Name the recorded Dmax for C=CCn1c(=O)c2cnc(Nc3ccc(N4CCN(CC5CCN(c6ccc7c(N8CCC(=O)NC8=O)nn(C)c7c6)CC5)CC4)c(C)c3)nc2n1-c1ccc2c(n1)[C@@](C)(O)CC2 .
50 to 75%

May I ask what Dmax has been recorded for COc1ccc(C(=O)N2CCC3(CCN(Cc4ccc(Nc5ncc6c(=O)n(-c7c(Cl)cccc7Cl)c7nccn7c6n5)cc4)CC3)CC2)cc1N1CCC(=O)NC1=O ?
< 50%

# get_value(readout='Dmax', item= C=CCn1c(=O)c2cnc(Nc3ccc(N4CCN(CC5CCN(c6cc7c(cc6F)c(N6CCC(=O)NC6=O)nn7C)CC5)CC4)nc3)nc2n1-c1ccc2c(n1)[C@](C)(O)CC2 )
> 75%

Item under review: C=CCn1c(=O)c2cnc(Nc3ccc(N4CCC(CN5CCN(c6ccc(NC7CCC(=O)NC7=O)cc6F)CC5)CC4)cc3)nc2n1-c1cccc(C(C)(C)O)n1 (single isomer, unassigned) [Compound 100-A] . Reported Dmax?
> 75%

Entry O=C1CCC(N2C(=O)c3cccc(NCCCN4CCN(c5ccc(Nc6ncc7c(=O)n(-c8c(Cl)cccc8Cl)c8nccn8c7n6)cc5)CC4)c3C2=O)C(=O)N1 (centres unmarked) has what Dmax?
50 to 75%

Attribution: patent US20250049798A1
